From: PubChem BioAssay (NCI)

Tested on: RPMI-8226 leukemia
PROTOCOL_TEXT: NCI tumour cell line growth inhibition, 48 h
Give measured TGI for each item. Keep answers brief.

COMPOUND	VALUE_REPORTED
COc1cc2cnc3c4cc(OC(C)C)c(OC)cc4ccc3c2cc1OC	> 100 µM
CCOC(=O)C1=C(C)CC2C(=O)OC(=O)C2C1(C)C (stereo unspecified)	> 100 µM
CCCN(CCC)CCc1ccc(OC2=CCN(C)CC2)cc1	> 100 µM
C1=CC2(C=CC13O[C@H](C1CCCCC1)[C@@H](C1CCCCC1)O3)O[C@H](C1CCCCC1)[C@@H](C1CCCCC1)O2	> 50 µM
CCOc1ccccc1-n1c(CN2CCN(C(=O)COc3ccc(CNCCCCCCN4C5CCCC4CC(OC(=O)Nc4cc(C)ccc4OC)C5)cc3)CC2)nc2ccccc2c1=O (stereo unspecified)	3.4 µM

Continue with the compound presented below.
Recorded TGI of `Nc1ncc(Br)c(NCC2(CO)CCC2)n1` , please.
> 100 µM

###

System: M14 melanoma
PROTOCOL_TEXT: NCI tumour cell line growth inhibition, 48 h
Provide the reported TGI of each item.
Give bare numbers, in µM.

Study these solved cases before continuing.
SMILES_STR	MEASUREMENT_UNITS	TGI
COc1ccc(-c2cc(-c3ccc(Nc4nc(Nc5ccccc5)nc(Nc5ccc(Cl)cc5)n4)cc3)nc(N)c2C#N)cc1	µM	1.81
O=C(CN1CCN(c2cc3c(cc2F)c(=O)c(C(=O)N/N=C/c2ccccc2O)cn3C2CC2)CC1)N/N=C\c1ccccc1O	µM	5.02
COc1cc2nc(C)nc(N[C@H](C)c3cc(N)cc(C(F)(F)F)c3)c2cc1O[C@H]1CCOC1	µM	31.7

Find the recorded TGI belonging to `O=[N+]([O-])c1cccc2nc3ccccc3c(NCCCCNc3c4ccccc4nc4cccc([N+](=O)[O-])c34)c12` and report it.
0.199

###

Test system: OVCAR-8 ovarian
PROTOCOL_TEXT: NCI tumour cell line growth inhibition, 48 h
For each entry below, report its GI50 value.

Use the examples below as a reference point.
COMPOUND	MEASURED_ENDPOINT	VALUE_REPORTED
COc1cc(C(=O)/C=C/c2sc(Cl)nc2Cl)cc(OC)c1OC	GI50	1.93 µM
Cc1cnc(NC(=O)C(Cc2ccccc2)NC(=O)c2ccccc2)s1 (stereo not drawn)	GI50	2.38 µM
CCOC(=O)Nc1nc2ccc(OCC)cc2s1	GI50	47.7 µM
COC(=O)Nc1nc2ccc(S(=O)c3ccccc3)cc2[nH]1 (stereo not drawn)	GI50	14.8 µM
CCCCCCCCSC1=CC(=O)c2nc3ccccc3c3ccnc1c23	GI50	> 100 µM
CCc1ccc2c(c1)C(=O)c1c-2n(CCCBr)c(=O)c2cc([N+](=O)[O-])ccc12	GI50	> 50 µM
Oc1ccc(Cl)cc1-c1cc(-c2ccccc2Cl)[nH]n1	GI50	7.13 µM

Now consider a different compound.
// lookup GI50 | system=OVCAR-8 ovarian | key= `O=C(CCl)N1c2ccccc2Oc2ccc3ccccc3c21`
0.78 µM

###

Tested on: CCRF-CEM leukemia
PROTOCOL_TEXT: NCI tumour cell line growth inhibition, 48 h
MEASURED_ENDPOINT: TGI

Examples with their reported TGI follow.
COMPOUND	VALUE_REPORTED
O=c1cc(-c2cccc(O)c2)[nH]c2cc3c(cc12)OCO3	> 100 µM
CSC(=N/C=C/c1ccccc1)SC	> 100 µM
COc1cc2nc(C)nc(N[C@H](C)c3cc(N)cc(C(F)(F)F)c3)c2cc1O[C@H]1CCOC1	49.3 µM
C=CC[C@H]1O[Si](C(C)(C)C)(C(C)(C)C)[C@H](C)[C@H]1C	> 100 µM
NC(N)=N/N=C/c1c(-c2ccc(Cl)c([N+](=O)[O-])c2)nc2sc(Cl)cn12	> 100 µM
CN(C)c1ccc(C2CC(c3ccc4ccccc4c3O)=NN2)cc1 (stereo not given)	83.3 µM
CC1(C)CCc2ccc(OCCC(=O)O)cc2O1	> 100 µM
NS(=O)(=O)c1ccccc1C(=O)N/N=C(\c1nc2ccc([N+](=O)[O-])cc2[nH]c1=O)C(O)c1ccc([N+](=O)[O-])cc1 (stereo not given)	> 100 µM
COc1ccc(-c2cc(=O)c3ccc(O)cc3o2)c(OC)c1OC	> 100 µM

Please turn your attention to the following entry.
Name the reported TGI value associated with the compound `C[N+](C)(CCCn1ccnc1[N+](=O)[O-])CCCn1ccnc1[N+](=O)[O-]`
> 100 µM
